Data provenance is paper PMC13089524.

tested target: SYK(S550Y)-NL (Homo sapiens, UniProt P43405, S550Y)
Construct: host or cells: HEK293
test name: NanoBRET cellular target engagement assay in intact live HEK293 cells, SYK(S550Y)-NL
Assay type: cell-based
assay conditions: tracer titration, [Tracer] 1000 nM; read-out: IC50, SYK(S550Y)-NL + 7 + MRL-SYKi
pIC50: −log10 of the molar value.
quantity: pIC50

• Cc1cc(Nc2nccc(C)n2)cc(-c2cnc([C@@]3(O)CC[C@H](C(=O)O)C(C)(C)C3)s2)c1 [MRL-SYKi] = 6.66

---

tested target: SYK(WT)-NL (Homo sapiens)
Construct: SYK tracers enable BRET with full-length SYK(WT) after digitonin permeabilization; host or cells: HEK293
test name: NanoBRET assay in digitonin permeabilized HEK293 cells, SYK(WT)-NL
Assay type: cell-based
assay conditions: C-terminal NL fusion, tracer 0.5, 1, 2 μM
Recorded BRET signal (background subtracted) by entry
quantity: BRET signal (background subtracted)

- CC1(C)Oc2ccc(Nc3nc(Nc4cccc(OCC(=O)NCCOCCOCCOCCNC(=O)CCc5ccc6n5[B-](F)(F)[N+]5=C(c7ccc[nH]7)C=CC5=C6)c4)ncc3F)nc2NC1=O: > 10 mBU
- O=C(CCc1ccc2n1[B-](F)(F)[N+]1=C(c3ccc[nH]3)C=CC1=C2)NCCOCCOCCOCCC(=O)N1CCN(c2ccc(Nc3nc(-c4ccc5cn[nH]c5c4)cn4ccnc34)cc2)CC1: 4 mBU
- Cc1cc(Nc2nccc(C)n2)cc(-c2cnc([C@@]3(O)CC[C@H](C(=O)NCCOCCOCCOCCNC(=O)CCc4ccc5n4[B-](F)(F)[N+]4=C(c6ccc[nH]6)C=CC4=C5)C(C)(C)C3)s2)c1: > 10 mBU
- CC1(C)Oc2ccc(Nc3nc(Nc4cccc(OCC(=O)NCCNC(=O)CCc5ccc6n5[B-](F)(F)[N+]5=C(c7ccc[nH]7)C=CC5=C6)c4)ncc3F)nc2NC1=O: > 10 mBU

---

tested target: SYK(P342T)-NL (Homo sapiens, UniProt P43405, P342T)
Construct: host or cells: HEK293
test name: NanoBRET cellular target engagement assay in intact live HEK293 cells, SYK(P342T)-NL
Assay type: cell-based
assay conditions: tracer titration, [Tracer] 31.2 nM; read-out: IC50, SYK(P342T)-NL + 8 + MRL-SYKi
quantity: IC50 (µM)

- Cc1cc(Nc2nccc(C)n2)cc(-c2cnc([C@@]3(O)CC[C@H](C(=O)O)C(C)(C)C3)s2)c1: 0.194

---

tested target: SYK(P342T)-NL (Homo sapiens, UniProt P43405, P342T)
Construct: host or cells: HEK293
test name: NanoBRET cellular target engagement assay in intact live HEK293 cells, SYK(P342T)-NL
Assay type: cell-based
assay conditions: tracer titration, [Tracer] 15.6 nM; read-out: IC50, SYK(P342T)-NL + 8 + MRL-SYKi
quantity: IC50 (nM)

• Cc1cc(Nc2nccc(C)n2)cc(-c2cnc([C@@]3(O)CC[C@H](C(=O)O)C(C)(C)C3)s2)c1 [MRL-SYKi] = 134

---

tested target: SYK(S550Y)-NL (Homo sapiens, UniProt P43405, S550Y)
Construct: host or cells: HEK293
test name: NanoBRET cellular target engagement assay in intact live HEK293 cells, SYK(S550Y)-NL
Format: cell-based
assay conditions: tracer titration, [Tracer] 125 nM; read-out: IC50, SYK(S550Y)-NL + 7 + MRL-SYKi
quantity: IC50 (nM)

* Cc1cc(Nc2nccc(C)n2)cc(-c2cnc([C@@]3(O)CC[C@H](C(=O)O)C(C)(C)C3)s2)c1 | 41

---

tested target: SYK(S550F)-NL (Homo sapiens, UniProt P43405, S550F)
Construct: host or cells: HEK293
test name: NanoBRET cellular target engagement assay in intact live HEK293 cells, SYK(S550F)-NL
Assay type: cell-based
assay conditions: tracer titration, [Tracer] 62.5 nM; read-out: IC50, SYK(S550F)-NL + 8 + MRL-SYKi
pIC50: −log10 of the molar value.
quantity: pIC50

• Cc1cc(Nc2nccc(C)n2)cc(-c2cnc([C@@]3(O)CC[C@H](C(=O)O)C(C)(C)C3)s2)c1 [MRL-SYKi] = 7.01

---

tested target: SYK(S550F)-NL (Homo sapiens, UniProt P43405, S550F)
Construct: host or cells: HEK293
test name: NanoBRET cellular target engagement assay in intact live HEK293 cells, SYK(S550F)-NL
Format: cell-based
assay conditions: tracer titration, [Tracer] 250 nM; read-out: IC50, SYK(S550F)-NL + 8 + MRL-SYKi
pIC50: −log10 of the molar value.
quantity: pIC50

- Cc1cc(Nc2nccc(C)n2)cc(-c2cnc([C@@]3(O)CC[C@H](C(=O)O)C(C)(C)C3)s2)c1 [MRL-SYKi]: 6.72

---

tested target: SYK(S550F)-NL (Homo sapiens, UniProt P43405, S550F)
Construct: host or cells: HEK293
test name: NanoBRET assay in digitonin permeabilized HEK293 cells, SYK(S550F)-NL
Format: cell-based
assay conditions: fixed concentration of tracer 8, average ± SEM, read-out: IC50, SYK(variant)-NL S550F
quantity: IC50

• Cc1cc(Nc2nccc(C)n2)cc(-c2cnc([C@@]3(O)CC[C@H](C(=O)O)C(C)(C)C3)s2)c1 = 14 nM

---

tested target: SYK(WT)-NL (Homo sapiens, UniProt P43405)
Construct: SYK tracers enable BRET with full-length SYK(WT) after digitonin permeabilization
test name: NanoBRET assay in digitonin permeabilized HEK293 cells, SYK(WT)-NL
assay conditions: fixed concentration of tracer 8, average ± SEM, read-out: IC50, SYK(variant)-NL WT
pIC50: −log10 of the molar value.
quantity: pIC50

* Cc1cc(Nc2nccc(C)n2)cc(-c2cnc([C@@]3(O)CC[C@H](C(=O)O)C(C)(C)C3)s2)c1 | 8.00

---

tested target: SYK(P342T)-NL (Homo sapiens, UniProt P43405, P342T)
Construct: host or cells: HEK293
test name: NanoBRET cellular target engagement assay in intact live HEK293 cells, SYK(P342T)-NL
Assay type: cell-based
assay conditions: tracer titration, [Tracer] 125 nM; read-out: IC50, SYK(P342T)-NL + 8 + MRL-SYKi
quantity: IC50

- Cc1cc(Nc2nccc(C)n2)cc(-c2cnc([C@@]3(O)CC[C@H](C(=O)O)C(C)(C)C3)s2)c1: 365 nM

---

tested target: SYK(S550Y)-NL (Homo sapiens, UniProt P43405, S550Y)
Construct: host or cells: HEK293
test name: NanoBRET assay in digitonin permeabilized HEK293 cells, SYK(S550Y)-NL
Assay type: cell-based
assay conditions: relative to MRL-SYKi (20 μM) treated cells, single experiment, read-out: EC50 of tracer, SYK(variant)-NL S550Y
pEC50: −log10 of the molar value.
quantity: pEC50

* Cc1cc(Nc2nccc(C)n2)cc(-c2cnc([C@@]3(O)CC[C@H](C(=O)NCCCNC(=O)CCc4ccc5n4[B-](F)(F)[N+]4=C(c6ccc[nH]6)C=CC4=C5)C(C)(C)C3)s2)c1 | 8.10

---

tested target: SYK(S550Y)-NL (Homo sapiens, UniProt P43405, S550Y)
Construct: host or cells: HEK293
test name: NanoBRET cellular target engagement assay in intact live HEK293 cells, SYK(S550Y)-NL
Format: cell-based
assay conditions: tracer titration, [Tracer] 62.5 nM; read-out: IC50, SYK(S550Y)-NL + 8 + MRL-SYKi
pIC50: −log10 of the molar value.
quantity: pIC50

* Cc1cc(Nc2nccc(C)n2)cc(-c2cnc([C@@]3(O)CC[C@H](C(=O)O)C(C)(C)C3)s2)c1 [MRL-SYKi] | 7.38

---

tested target: SYK(P342T)-NL (Homo sapiens, UniProt P43405, P342T)
Construct: host or cells: HEK293
test name: NanoBRET cellular target engagement assay in intact live HEK293 cells, SYK(P342T)-NL
Type: cell-based
assay conditions: intact cells, ± 10 μM MRL-SYKi, single experiment; read-out: cellular EC50 of the tracer, SYK(P342T)-NL
quantity: EC50 (nM)

* Cc1cc(Nc2nccc(C)n2)cc(-c2cnc([C@@]3(O)CC[C@H](C(=O)NCCCNC(=O)CCc4ccc5n4[B-](F)(F)[N+]4=C(c6ccc[nH]6)C=CC4=C5)C(C)(C)C3)s2)c1 | 280

---

tested target: SYK(S550Y)-NL (Homo sapiens, UniProt P43405, S550Y)
Construct: host or cells: HEK293
test name: NanoBRET cellular target engagement assay in intact live HEK293 cells, SYK(S550Y)-NL
Type: cell-based
assay conditions: tracer titration, [Tracer] 15.6 nM; read-out: IC50, SYK(S550Y)-NL + 8 + MRL-SYKi
quantity: IC50 (nM)

- Cc1cc(Nc2nccc(C)n2)cc(-c2cnc([C@@]3(O)CC[C@H](C(=O)O)C(C)(C)C3)s2)c1: 27
